# measurement_description: NCI Yeast Anticancer Drug Screen. Data for the sgs1 mgt1 strain (AID 161);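 further: 0% = growth of cultures given vehicle only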
# condition_set: S. cerevisiae sgs1 mgt1 strain, at 50.0 µM, active compounds read high
Compounds without any hit were thinned out: in the full panel of roughly 79,000, 15% have a hit.

{"columns": ["compound", "output_unit", "growth inhibition"],
 "data": [
  ["CCOc1ccc(NC(=O)C(=O)C(C(=O)c2ccc3ccccc3c2)C2OC(=O)c3ccccc32)cc1 (stereo not given)", "%", -2.4],
  ["Cc1cc(C)c(C(=O)c2ccccc2C)c(C)c1", "%", -0.35],
  ["CN(C)C(=O)C1OC1(C)c1ccccc1 (stereo not given)", "%", -3.35],
  ["C1=C/CCC2OC2CC/C=C/CC/1 (stereo not given)", "%", -24.8],
  ["Cc1ccc(S(=O)(=O)O/C=C2/CCOC2=O)cc1", "%", 29.9],
  ["CN(C(=O)c1ccco1)C(=S)N1CCN(c2ccccc2)CC1", "%", -0.7],
  ["CN1CNc2nc(N)n(C)c(=O)c2C1", "%", 11.4],
  ["C/C(=N\\[N+](C)(C)C)c1ccc2ccccc2c1", "%", -1.6],
  ["CC(C)(C)NCC(O)c1ccc(O)c(CO)n1 (stereo not given)", "%", -19.4],
  ["COc1ccccc1N=Nc1c(O)n(-c2ccccc2OC)c(=S)n(-c2ccc(I)cc2)c1=O", "%", 96],
  ["Nc1cnc2ccccc2c1", "%", -8.45],
  ["COC(=O)/C=C/c1c(=O)c(C(=O)OC)cn2cnc3nc[nH]c3c12", "%", -20.6],
  ["O=C(Nc1cccc([N+](=O)[O-])c1)N1CCCC1", "%", -7.75],
  ["O=C(Nc1ccc(Cl)cc1[N+](=O)[O-])N1CCN(c2ccccc2)CC1", "%", 29.4],
  ["OC1(C2(O)CCCCC2)CCCCC1", "%", 22.1],
  ["O=C(O)c1ccc(F)cc1C(=O)O", "%", 4.75],
  ["COc1ccc(CCNC(=S)N/C=C(\\C#N)S(=O)(=O)c2ccc(C)cc2)cc1OC", "%", 4.55],
  ["CCN(/C=C/C=C(C#N)C#N)CC", "%", -9.05],
  ["O=C(CCCSCCCC(=O)NN=C1CCSCC1)NN=C1CCSCC1", "%", 10.8],
  ["CC(=O)Nc1ccc(S(=O)(=O)NNc2nc(N3CCCC3)nc(N3CCCC3)n2)cc1", "%", -14.4]
]}

====

# measurement_description: NCI Yeast Anticancer Drug Screen. Data for the rad50 strain (AID 155);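 further: 0% = growth of vehicle-only cultures of the same strain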
# condition_set: S. cerevisiae rad50 strain growth inhibition; at 50.0 µM; active compounds read high
The panel holds about 79,000 compounds, 15% with a hit somewhere; the sample as a whole holds those more often.
Below is a list of entries, each paired with its recorded growth inhibition value.

{"columns": ["compound", "growth inhibition, %"],
 "data": [
  ["Cc1ccc(I)c(C)c1", -40],
  ["c1scc2c1COCCOCCOCCOCc1cscc1COCCOCCOCCOC2", -20.2],
  ["Cc1ccc(CNC(=O)Nc2cccc(Cl)c2)cc1C", 6.05],
  ["Nc1ccc(F)c(Cl)c1", 0.85],
  ["C[C@H](CCC(c1ccccc1)c1ccccc1)[C@H]1CC[C@H]2[C@@H]3CC[C@@H]4C[C@H](O)CC[C@]4(C)C3=CC[C@]12C", 1.7],
  ["Nc1ccc(Cn2ccc(=O)[nH]c2=O)cc1", -14.4],
  ["O=C(/C=C/c1ccccc1)Nc1ccccc1C(F)(F)F", 4.45],
  ["O=C1c2ccccc2C(=O)N1c1ccc(Cl)cc1", 3.5],
  ["O=C1C(=Cc2cccnc2)C(=O)c2ccccc21", 26],
  ["O=S(=O)(O)c1cc(S(=O)(=O)O)c2c(Nc3ccnc4ccccc34)ccc(S(=O)(=O)O)c2c1", -8.25],
  ["CN1C(=O)CC(c2ccc(Cl)cc2)C1=O (centres undefined)", 21.4],
  ["CCOc1ccccc1NC(=O)CC1Sc2ccccc2NC1=O (centres undefined)", 24.5],
  ["N#CC1(N=Cc2ccc3c(c2)OCO3)c2ccccc2-c2ccccc21", 15.2],
  ["S=C(NCCCN1Cc2ccccc2C1)Nc1ccccc1", 15.4],
  ["Nc1ccc2ccc(S(=O)(=O)O)cc2c1", -17.7],
  ["COc1cc(CNc2ccc3nc4n(c(=O)c3c2)CCCCC4)cc(OC)c1OC", -9.7],
  ["Oc1c(Br)cc(Br)cc1/C=N/c1nc(-c2ccccc2)cs1", 98.5],
  ["Cn1/c(=N\\N=C2\\C=C3CCCCC3(C)CC2)sc2ccccc21 (centres undefined)", 12.7],
  ["CN(C)c1ccc(/C=C(\\C#N)c2ccc(F)cc2F)cc1", 0.4]
]}

====

Below is a list of entries, each paired with its recorded growth inhibition value.
# measurement_description: NCI Yeast Anticancer Drug Screen. Data for the sgs1 mgt1 strain (AID 161);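 further: 0% = growth of cultures given vehicle only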
# condition_set: S. cerevisiae sgs1 mgt1 strain, at 50.0 µM, active compounds read high
About 79,000 compounds went through this panel and 15% of them were active in at least one assay; those are over-represented in the sample as a whole.
property_label: growth inhibition (%)

{"columns": ["molecule", "value"],
 "data": [
  ["CCOC(=O)c1nc2ccccc2c(=O)n1NC(=S)Nc1ccc(Cl)cc1", -1.2],
  ["CC1(C)CC(=O)C2=C(C1)NC(=S)C(C#N)C2c1ccccc1 (stereo not given)", 14.7],
  ["Cc1ccc2c(ccc3nnc(C)n32)c1", 4.65],
  ["COc1cc(C2CC(C)(N3CCCC3)Oc3cc4c(cc32)OCO4)cc(OC)c1OC (stereo not given)", 9.5],
  ["C[C@H](CCc1nc(C#N)c(N)o1)[C@H]1CC[C@H]2[C@@H]3CCC4C[C@@H](O)CC[C@]4(C)[C@H]3C[C@@H](O)[C@]12C (stereo not given in full)", 86],
  ["CC(=O)NNC(=S)N/C=C(\\C#N)C(=O)c1ccc2ccccc2c1", -12.7],
  ["COc1ccc(-c2cc(=O)c3c(O)cc(O)c(-c4cc(-c5cc(=O)c6c(O)cc(OC)cc6o5)ccc4OC)c3o2)cc1", 5.55],
  ["Cc1cc(C)c2c(-c3ccccc3)cc(=O)[nH]c2c1", -29.4],
  ["CC(C)C1C(=O)CCCC1=O", -5.5],
  ["CCN(CC)CCSSCCN(CC)CC", -7.05],
  ["O=C(Nc1ccc(F)cc1)Nc1cccc(C(=O)O)c1", 6.4],
  ["CCOC1NC(=O)c2ccccc21 (stereo not given)", 5.85],
  ["CC1(C)[C@H](C(=O)O)CC[C@]1(C)C(=O)O", 1.05],
  ["COc1ccc(NC(=O)C(=O)C2NC(=S)NC2=O)c(OC)c1 (stereo not given)", 11.6],
  ["C=C(Cl)COc1ccc(C(=O)c2ccccc2)cc1", -6.5]
]}

====

# measurement_description: NCI Yeast Anticancer Drug Screen. Data for the bub3 strain (AID 167)
# condition_set: S. cerevisiae bub3 mutant strain, at 50.0 µM, active compounds read high
This is part of a sample that, as a whole, favours compounds with a hit. Of some 79,000 tested, about 15% had one in any assay.

{"columns": ["molecule", "growth inhibition, %"],
 "data": [
  ["CCc1cccc(CC)c1Nc1nc(C)nc2c1cnn2C", 5.35],
  ["CCCC(C)(C#N)c1ccc(OC)cc1 (stereo not given)", 32.4],
  ["Cc1ccc(S(=O)(=O)N2CCN(S(=O)(=O)c3ccc(C)cc3)COC2)cc1", -1.6],
  ["CCCCN(Cc1ccccc1)C(=O)Nc1ccccc1", 39],
  ["Nc1nc(=O)n(C2CC(O)C(CO)O2)cc1I (stereo not given)", -0.8],
  ["CCC(C)C(=O)/C=C/c1ccccc1 (stereo not given)", 21.3],
  ["CC[N+](CC)=c1ccc2nc3c(cc(Nc4ccccc4)c4ccccc43)oc-2c1.[Cl][Zn][Cl]", -0.55],
  ["CN(C)n1c(O)c(N=O)sc1=S", -10.1],
  ["NCCNCc1ccncc1", -47.2],
  ["CCCc1ccccc1[N+](=O)[O-]", 8.7],
  ["Cc1nc2nnc(N)n2nc1C", 8.45],
  ["CC(C)(C)OC(=O)C1/C(=C/CO)CN1C(=O)OC(C)(C)C (stereo not given)", -12.1],
  ["C[n+]1cccc2cc(Br)ccc21", 11.6],
  ["COc1ccc(/C=C2\\NC(=S)N(/C=C3\\C(=O)Oc4ccccc4C3=O)C2=O)cc1OC", -13.8],
  ["CC1(C)CC2CC(CC(C)(C)C2=O)C1=O", 7.9],
  ["CN1CCC2(C1)C1CC3CC(C1)CC2C3 (stereo not given)", 3.4],
  ["Nc1nnc2nc(CC(=O)c3ccccn3)/c(=C/C(=O)c3ccccn3)n12", -26.9],
  ["CN(C)c1ccc(C(=C2C=CC(=[N+](C)C)C=C2)c2c(O)c(S(=O)(=O)[O-])cc3cc(S(=O)(=O)O)ccc23)cc1", -14.6],
  ["O=C(N/N=C/c1cccc(C(F)(F)F)c1)c1ccncc1", 8.05],
  ["CC1CC[N+](C)([B-](F)(F)F)CC1 (stereo not given)", 2.45]
]}
